The molecules below have reported log10 IC50 for Protease (Human immunodeficiency virus 1).
recorded metric: log10 IC50 (log10 of the value in nM)

>>> result_number("CC(O)[C@H](NC(=O)[C@H](Cc1cccc2ccccc12)CS(=O)(=O)C(C)(C)C)C(=O)N[C@@H](Cc1ccccc1)[C@@H](O)[C@H](O)[C@H](Cc1ccccc1)NC(=O)[C@@H](NC(=O)[C@H](Cc1cccc2ccccc12)CS(=O)(=O)C(C)(C)C)C(C)O (stereo partly drawn)")
-0.52
>>> result_number("CC(C)[C@H](NC(=O)[C@@H](N)Cc1ccccc1)C(=O)N[C@@H](Cc1ccccc1)[C@@H](O)[C@H](O)[C@H](Cc1ccccc1)NC(=O)[C@@H](NC(=O)[C@@H](N)Cc1ccccc1)C(C)C")
-0.07
>>> result_number("CC(C)[C@H](NC(=O)[C@H](Cc1cccc2ccccc12)CS(=O)(=O)C(C)(C)C)C(=O)NC[C@@H](O)[C@H](O)CNC(=O)[C@@H](NC(=O)[C@H](Cc1cccc2ccccc12)CS(=O)(=O)C(C)(C)C)C(C)C")
0.34
>>> result_number("CC(C)[C@H](NC(=O)CCS(=O)(=O)c1ccncc1)C(=O)N[C@@H](Cc1ccccc1)[C@@H](O)[C@H](O)[C@H](Cc1ccccc1)NC(=O)[C@@H](NC(=O)CCS(=O)(=O)c1ccncc1)C(C)C")
0.60
>>> result_number("CC(C)[C@H](NC(=O)[C@H](Cc1cccc2ccccc12)NS(C)(=O)=O)C(=O)N[C@@H](Cc1ccccc1)[C@@H](O)[C@H](O)[C@H](Cc1ccccc1)NC(=O)[C@@H](NC(=O)[C@H](Cc1cccc2ccccc12)NS(C)(=O)=O)C(C)C")
-0.10
>>> result_number("CC(C)(C)S(=O)(=O)C[C@@H](Cc1cccc2ccccc12)C(=O)N[C@@H](CC(N)=O)C(=O)N[C@@H](Cc1ccccc1)[C@@H](O)[C@H](O)[C@H](Cc1ccccc1)NC(=O)[C@H](CC(N)=O)NC(=O)[C@H](Cc1cccc2ccccc12)CS(=O)(=O)C(C)(C)C")
2.00
>>> result_number("CC(C)[C@H](NC(=O)[C@H](Cc1ccccc1)CS(=O)(=O)C(C)(C)C)C(=O)N[C@@H](Cc1ccccc1)[C@@H](O)[C@H](O)[C@H](Cc1ccccc1)NC(=O)[C@@H](NC(=O)[C@H](Cc1ccccc1)CS(=O)(=O)C(C)(C)C)C(C)C")
0.51
>>> result_number("CC(C)[C@H](NC(=O)[C@H](Cc1ccccc1)NC(=O)[C@@H](O)C(O)[C@@H](O)C(O)O)C(=O)N[C@@H](Cc1ccccc1)[C@@H](O)[C@H](O)[C@H](Cc1ccccc1)NC(=O)[C@@H](NC(=O)[C@H](Cc1ccccc1)NC(=O)[C@@H](O)[C@@H](O)[C@@H](O)C(O)O)C(C)C (single isomer, unassigned)")
-0.05
>>> result_number("CC(C)[C@H](NC(=O)[C@H](Cc1cccc2ccccc12)CS(=O)(=O)C(C)(C)C)C(=O)N[C@@H](Cc1ccccc1)[C@@H](O)[C@H](O)[C@H](Cc1ccccc1)NC(=O)[C@@H](NC(=O)[C@H](Cc1cccc2ccccc12)CS(=O)(=O)C(C)(C)C)C(C)C")
-0.52
>>> result_number("CC(C)(C)S(=O)(=O)C[C@@H](Cc1cccc2ccccc12)C(=O)N[C@@H](Cc1c[nH]cn1)C(=O)N[C@@H](Cc1ccccc1)[C@@H](O)[C@H](O)[C@H](Cc1ccccc1)NC(=O)[C@H](Cc1c[nH]cn1)NC(=O)[C@H](Cc1cccc2ccccc12)CS(=O)(=O)C(C)(C)C")
2.53
>>> result_number("CC(C)(C)S(=O)(=O)C[C@@H](Cc1cccc2ccccc12)C(=O)N[C@@H](CCC(=O)O)C(=O)N[C@@H](Cc1ccccc1)[C@@H](O)[C@H](O)[C@H](Cc1ccccc1)NC(=O)[C@H](CCC(=O)O)NC(=O)[C@H](Cc1cccc2ccccc12)CS(=O)(=O)C(C)(C)C")
-0.13
>>> result_number("CC(C)[C@H](NC(=O)[C@@H](CC(=O)O)Cc1ccccc1)C(=O)N[C@@H](Cc1ccccc1)[C@@H](O)[C@H](O)[C@H](Cc1ccccc1)NC(=O)[C@@H](NC(=O)[C@@H](CC(=O)O)Cc1ccccc1)C(C)C")
0.15
>>> result_number("CC(C)[C@H](NC(=O)[C@H](Cc1cccc2ccccc12)CS(=O)(=O)C(C)(C)C)C(=O)N[C@@H](CCc1ccncc1)[C@@H](O)[C@H](O)[C@H](CCc1ccncc1)NC(=O)[C@@H](NC(=O)[C@H](Cc1cccc2ccccc12)CS(=O)(=O)C(C)(C)C)C(C)C")
2.15

Entry source: ChEMBL document CHEMBL1155285
